# SYSTEM_TESTED: T1, Placenta Growth Factor (PlGF), human (human, UniProt P49763 21-149)
# T1 chain: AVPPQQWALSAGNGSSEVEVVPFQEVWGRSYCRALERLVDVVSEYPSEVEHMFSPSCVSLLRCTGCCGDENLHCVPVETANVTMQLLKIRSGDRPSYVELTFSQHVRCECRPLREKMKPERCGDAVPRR
# METHOD_DESCRIPTION: ELISA

BINDER	EC50
HC 3/SLC 15 (antibody) chain 1: GQGTLVTVSSASTQPVLHQPPAMSSALGTTIRLTCTLRNDHDIGVYSVYWYQQRPGHPPRFLLRYFSQSDKSQGPQVPPRFSGSKDVARNRGYLSISELQPEDEAMYYCAMGARSRCWPRGFQSKHNSVTHVFGSGTQLTVLSQPKATPSVTLFPPSSEELQANKATLVCLMNDFYPGILTVTWKADGTPITQGVEMTTPSKQSNNKYAASSYLSLTPEQWRSRRSYSCQVMHEGSTVEKTVAPAECS chain 2: MSWAPVLLMLFVYCTGCGPQPVLHQPPAMSSALGTTIRLTCTLRNDHDIGVYSVYWYQQRPGHPPRFLLRYFSQSDKSQGPQVPPRFSGSKDVARNRGYLSISVTHVFGSGTQLTVLSQPKATPSVTGGGGSQVQLVQ	0.057 nM
HC 4/SLC 7 (antibody) chain 1: GQGTLVTVSSASTKQPVLHQPPAMSSALGTTIRLTCTLRNDHDIGVYSVYWYQQRPGHPPRFLLRYFSQSDKSQGPQVPPRFSGSKDVARNRGYLSISELQPEDEAMYYCAMGARSRCWPRGFQSKHNSVTHVFGSGTQLTVLSQPKATPSVTLFPPSSEELQANKATLVCLMNDFYPGILTVTWKADGTPITQGVEMTTPSKQSNNKYAASSYLSLTPEQWRSRRSYSCQVMHEGSTVEKTVAPAECS chain 2: MSWAPVLLMLFVYCTGCGPQPVLHQPPAMSSALGTTIRLTCTLRNDHDIGVYSVYWYQQRPGHPPRFLLRYFSQSDKSQGPQVPPRFSGSKDVARNRGYLSISVTHVFGSGTQLTVLSQPKATPQVQLVQ	0.161 nM
HC 3/SLC 7 (antibody) chain 1: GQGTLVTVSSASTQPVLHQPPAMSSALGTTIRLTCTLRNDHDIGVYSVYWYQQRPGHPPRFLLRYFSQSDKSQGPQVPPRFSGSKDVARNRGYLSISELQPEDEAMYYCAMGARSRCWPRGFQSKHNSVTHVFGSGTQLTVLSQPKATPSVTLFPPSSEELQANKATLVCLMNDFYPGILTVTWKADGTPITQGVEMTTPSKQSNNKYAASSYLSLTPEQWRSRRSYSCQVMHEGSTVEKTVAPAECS chain 2: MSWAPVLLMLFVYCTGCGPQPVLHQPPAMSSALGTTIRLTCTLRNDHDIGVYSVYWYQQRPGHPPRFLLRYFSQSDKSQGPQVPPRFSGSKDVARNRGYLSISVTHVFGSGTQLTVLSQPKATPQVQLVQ	0.159 nM
HC 7/SLC 7 (antibody) chain 1: GQGTLVTVSSASTKGPSQPVLHQPPAMSSALGTTIRLTCTLRNDHDIGVYSVYWYQQRPGHPPRFLLRYFSQSDKSQGPQVPPRFSGSKDVARNRGYLSISELQPEDEAMYYCAMGARSRCWPRGFQSKHNSVTHVFGSGTQLTVLSQPKATPSVTLFPPSSEELQANKATLVCLMNDFYPGILTVTWKADGTPITQGVEMTTPSKQSNNKYAASSYLSLTPEQWRSRRSYSCQVMHEGSTVEKTVAPAECS chain 2: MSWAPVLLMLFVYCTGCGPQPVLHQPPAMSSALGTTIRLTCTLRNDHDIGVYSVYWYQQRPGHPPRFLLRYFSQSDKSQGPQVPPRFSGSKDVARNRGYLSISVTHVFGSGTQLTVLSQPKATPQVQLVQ	0.106 nM
